test_system: beta-catenin/TCF4 engagement (Homo sapiens, UniProt P35222)
Construct: expressed in transfected cells; host or cells: HEK293
run_description: Nano-BRET target engagement assay (B-cat-Halo & TCF4-Luc in HEK293 cells)
Type: cell-based
test_context: absolute IC50; read-out: NanoBRET Abs IC50
property: IC50 (µM)
Form entry: value (µM) — number only.

// worked examples, IC50 included
compound	test_system	IC50 / µM
CC(=O)N1CCC[C@]12CC=CCCCC1(CCCC=CCCCOC(=O)N3CC[C@@](C(=O)N[C@@H](Cc4ccccc4Cl)C(=O)N[C@@H](Cc4csc5ccccc45)C(=O)N[C@@H](CCC(N)=O)C(N)=O)(C3)NC(=O)[C@H](CC(N)=O)NC(=O)[C@H](Cc3ccccc3)NC(=O)[C@H](C)NC(=O)[C@H](CO)NC(=O)[C@H](CN(CC(=O)O)CC(F)(F)F)NC(=O)[C@H](CC(=O)O)NC1=O)NC(=O)[C@H](CC(C)(C)C)NC(=O)[C@H](CC(=O)O)NC2=O (some centres unmarked) [I-1009]	beta-catenin/TCF4 engagement (Homo sapiens, UniProt P35222)	33.3
CC(=O)N1CCC[C@]12CC=CCCCC1(CCCC=CCCCOC(=O)N3CC[C@@](C(=O)N[C@@H](Cc4ccccc4C(F)(F)F)C(=O)N[C@@H](Cc4ccc5ccccc5c4)C(=O)N[C@@H](CCC(N)=O)C(N)=O)(C3)NC(=O)[C@H](CC(C)C)NC(=O)[C@H](Cc3ccccc3)NC(=O)[C@H](C)NC(=O)[C@H](C)NC(=O)[C@H](Cc3cccc(C(=O)O)c3)NC(=O)[C@H](CC(=O)O)NC1=O)NC(=O)[C@H](CC(C)(C)C)NC(=O)[C@H](CC(=O)O)NC2=O (some centres unmarked) [I-2460]	beta-catenin/TCF4 engagement (Homo sapiens, UniProt P35222)	12.8

Could you now consider this next compound?
Determine its reported IC50: CC(=O)N1CCC[C@]12CC=CCCCC1(CCCC=CCCCOC(=O)N3CC[C@@](C(=O)N[C@@H](Cc4ccsc4)C(=O)N[C@@H](Cc4csc5ccccc45)C(=O)N[C@@H](Cc4c[nH]cn4)C(N)=O)(C3)NC(=O)[C@H](CC(N)=O)NC(=O)[C@H](Cc3ccccc3)NC(=O)[C@H](C)NC(=O)[C@H](C)NC(=O)[C@H](CCCNC(N)=O)NC(=O)[C@H](CC(=O)O)NC1=O)NC(=O)[C@H](CC(C)(C)C)NC(=O)[C@H](CC(=O)O)NC2=O (some centres unmarked) [I-841]
34.4

###

test_system: full-length beta-Catenin (Uniprot ID P35222) (Homo sapiens)
Construct: 10 nM full-length beta-Catenin (Uniprot ID P35222)
run_description: Fluorescence polarization IC50 (beta-catenin / 5FAM-TCF4 10-53 competition)
Assay type: binding
test_context: fluorescence polarization; read-out: beta-Catenin FP IC50
pIC50: −log10 of the molar value.
Binary call on pIC50: class 1 from 8 upward, class 0 beneath that.

Please indicate if the recorded pIC50 for CC(=O)N1CCC[C@]12CC=CCCCC1(CCCC=CCCCCOC(=O)N3CC[C@@](C(=O)N[C@@H](Cc4ccccc4)C(=O)N[C@@H](Cc4csc5ccccc45)C(=O)N[C@@H](CCC(N)=O)C(N)=O)(C3)NC(=O)[C@H](CC(N)=O)NC(=O)[C@H](Cc3ccccc3)NC(=O)[C@H](C)NC(=O)[C@H](C)NC(=O)[C@H](CCC(=O)O)NC(=O)[C@H](CC(=O)O)NC1=O)NC(=O)[C@H](C)NC(=O)[C@H](CC(=O)O)NC2=O (some centres unmarked) [I-464] meets or exceeds 8.
class 0

Entry CC(=O)N1CCC[C@]12CC=CCCCCC1(CCCCC=CCCOC(=O)N3CC[C@@](C(=O)N[C@@H](Cc4ccccc4C(F)(F)F)C(=O)N[C@@H](Cc4csc5ccccc45)C(=O)N[C@@H](CCC(N)=O)C(N)=O)(C3)NC(=O)[C@H](CC(C)C)NC(=O)[C@H](Cc3ccccc3)NC(=O)[C@H](C)NC(=O)[C@H](C)NC(=O)[C@H](Cc3cccc(C(=O)O)c3)NC(=O)[C@H](CC(=O)O)NC1=O)NC(=O)[C@H](CC(C)(C)C)NC(=O)[C@H](CC(=O)O)NC2=O (some centres unmarked) [I-2508] : is its pIC50 no less than 8?
class 0

Textbook exercise: given the entry CC(=O)N1CCC[C@]12CC=CCCCC1(CCCC=CCCCOC(=O)N3CC[C@@](C(=O)N[C@@H](Cc4cccc(-c5ccccc5)c4)C(=O)N[C@@H](Cc4ccccc4C(F)(F)F)C(=O)N[C@@H](CCC(N)=O)C(N)=O)(C3)NC(=O)[C@H](CC(C)C)NC(=O)[C@H](Cc3ccccc3)NC(=O)[C@H](C)NC(=O)[C@H](C)NC(=O)[C@H](Cc3cccc(C(=O)O)c3)NC(=O)[C@H](CC(=O)O)NC1=O)NC(=O)[C@H](CC(C)(C)C)NC(=O)[C@H](CC(=O)O)NC2=O (some centres unmarked) [I-2256] , state whether its pIC50 is greater than or equal to 8.
class 0

For this compound, is measured pIC50 8 or higher? CCCC[C@@H]1NC(=O)[C@H](CC(=O)O)NC(=O)[C@]2(CC=CCCCC3(CCCC=CCCCOC(=O)N4CC[C@@](C(=O)N[C@@H](Cc5ccsc5)C(=O)N[C@@H](Cc5csc6ccccc56)C(=O)N[C@@H](CCC(N)=O)C(N)=O)(C4)NC(=O)[C@H](CCCC)NC(=O)[C@H](Cc4ccccc4)NC(=O)[C@H](C)NC(=O)[C@H](C)NC(=O)[C@H](CC(=O)O)NC(=O)[C@H](CC(=O)O)NC3=O)NC1=O)CCCN2C(C)=O (some centres unmarked) [I-1401]
class 1

###

test_system: beta-catenin/TCF4 engagement (Homo sapiens, UniProt P35222)
Construct: expressed in transfected cells; host or cells: HEK293
Sequence (P35222 1-781): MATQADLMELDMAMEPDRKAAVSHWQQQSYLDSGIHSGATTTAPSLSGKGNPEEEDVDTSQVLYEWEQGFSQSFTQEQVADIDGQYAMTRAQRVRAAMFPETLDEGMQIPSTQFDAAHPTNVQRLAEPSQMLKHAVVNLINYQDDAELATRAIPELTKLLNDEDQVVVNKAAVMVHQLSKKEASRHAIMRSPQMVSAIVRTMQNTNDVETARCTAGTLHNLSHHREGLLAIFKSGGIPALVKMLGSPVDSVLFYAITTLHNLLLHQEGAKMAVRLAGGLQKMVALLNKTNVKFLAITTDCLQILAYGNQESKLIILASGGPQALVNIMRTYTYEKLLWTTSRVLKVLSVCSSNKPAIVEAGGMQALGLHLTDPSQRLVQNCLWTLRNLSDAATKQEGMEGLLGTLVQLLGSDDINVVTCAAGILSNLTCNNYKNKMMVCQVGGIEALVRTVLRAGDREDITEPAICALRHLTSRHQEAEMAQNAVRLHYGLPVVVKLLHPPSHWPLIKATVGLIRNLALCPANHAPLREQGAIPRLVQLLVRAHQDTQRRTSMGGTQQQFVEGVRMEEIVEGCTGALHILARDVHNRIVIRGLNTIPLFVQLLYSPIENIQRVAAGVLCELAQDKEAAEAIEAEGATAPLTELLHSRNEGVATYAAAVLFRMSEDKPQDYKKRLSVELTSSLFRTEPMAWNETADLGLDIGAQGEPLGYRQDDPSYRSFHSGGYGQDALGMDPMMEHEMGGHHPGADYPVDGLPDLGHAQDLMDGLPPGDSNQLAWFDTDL
run_description: Nano-BRET target engagement assay (B-cat-Halo & TCF4-Luc in HEK293 cells)
Assay type: cell-based
test_context: absolute IC50; read-out: NanoBRET Abs IC50
pIC50: −log10 of the molar value.
# if value of pIC50 reaches 5, tag T; if it stays below, tag F

molecule	test_system	group
CC(=O)N1CCC[C@]12CC=CCCCC1(CCCC=CCCCOC(=O)N3CC[C@@](C(=O)N[C@@H](Cc4ccccc4Cl)C(=O)N[C@@H](Cc4csc5ccccc45)C(=O)N[C@@H](CCC(N)=O)C(N)=O)(C3)NC(=O)[C@H]([C@@H](C)O)NC(=O)[C@H](Cc3ccccc3)NC(=O)[C@H](C)NC(=O)[C@H](C)NC(=O)[C@H]([C@@H](C)O)NC(=O)[C@H](CC(=O)O)NC1=O)NC(=O)[C@H](CC1CCCCC1)NC(=O)[C@H](CC(=O)O)NC2=O (stereo partly drawn)	beta-catenin/TCF4 engagement (Homo sapiens, UniProt P35222)	F
CC(=O)N1CCC[C@]12CC=CCCCC1(CCCC=CCCCOC(=O)N3CC[C@@](C(=O)N[C@@H](Cc4ccccc4C(F)(F)F)C(=O)N[C@@H](Cc4csc5ccccc45)C(=O)N[C@@H](CO)C(N)=O)(C3)NC(=O)[C@H](CC(C)C)NC(=O)[C@H](Cc3ccccc3)NC(=O)[C@H](C)NC(=O)[C@H](C)NC(=O)[C@H](Cn3cc(CC4(C(=O)O)CCCCC4)nn3)NC(=O)[C@H](CC(=O)O)NC1=O)NC(=O)[C@H](CC(C)(C)C)NC(=O)[C@H](CC(=O)O)NC2=O (stereo partly drawn)	beta-catenin/TCF4 engagement (Homo sapiens, UniProt P35222)	T
CNC(=O)C[C@@H]1NC(=O)[C@H](Cc2ccccc2)NC(=O)[C@H](C)NC(=O)C(C)(C)NC(=O)[C@H]([C@@H](C)O)NC(=O)[C@H](CC(N)=O)NC(=O)C2(CCCC=CCCCOC(=O)N3CC[C@@](C(=O)N[C@@H](Cc4ccsc4)C(=O)N[C@@H](Cc4csc5ccccc45)C(=O)N[C@@H](CC(N)=O)C(N)=O)(C3)NC1=O)CCCC=CC[C@]1(CCCN1C(C)=O)C(=O)N[C@@H](CC(=O)O)C(=O)N[C@@H](CC(C)(C)C)C(=O)N2 (stereo partly drawn)	beta-catenin/TCF4 engagement (Homo sapiens, UniProt P35222)	F
CC(=O)N1CCC[C@]12CC=CCCCC1(CCCC=CCCCOC(=O)N3CC[C@@](C(=O)N[C@@H](Cc4ccsc4)C(=O)N[C@@H](Cc4csc5ccccc45)C(=O)N[C@@H](CCC(N)=O)C(N)=O)(C3)NC(=O)[C@H](CC(C)C)NC(=O)[C@H](Cc3ccccc3)NC(=O)[C@H](C)NC(=O)[C@H](C)NC(=O)[C@H](Cc3c[nH]c4ccccc34)NC(=O)[C@H](CC(=O)O)NC1=O)NC(=O)[C@H](CC(C)(C)C)NC(=O)[C@H](CC(=O)O)NC2=O (stereo partly drawn)	beta-catenin/TCF4 engagement (Homo sapiens, UniProt P35222)	F
CC(=O)N1CCC[C@]12CC=CCCCC1(CCCC=CCCCOC(=O)N3CC[C@@](C(=O)N[C@@H](Cc4ccccc4C(F)(F)F)C(=O)N[C@@H](Cc4csc5ccccc45)C(=O)N[C@@H](C)C(N)=O)(C3)NC(=O)[C@H](CC(C)C)NC(=O)[C@H](Cc3ccccc3)NC(=O)[C@H](C)NC(=O)[C@H](CCC(N)=O)NC(=O)[C@H](Cn3cc(CCC(=O)O)nn3)NC(=O)[C@H](CC(=O)O)NC1=O)NC(=O)[C@H](CC(C)(C)C)NC(=O)[C@H](CC(=O)O)NC2=O (stereo partly drawn)	beta-catenin/TCF4 engagement (Homo sapiens, UniProt P35222)	T
CCNC(=O)CC[C@@H]1NC(=O)[C@H](Cc2cccc(C(=O)O)c2)NC(=O)[C@H](CC(=O)O)NC(=O)C2(CCCC=CCCCOC(=O)N3CC[C@@](C(=O)N[C@@H](Cc4ccsc4)C(=O)N[C@@H](Cc4csc5ccccc45)C(=O)N[C@@H](C)C(N)=O)(C3)NC(=O)[C@H](C(C)C)NC(=O)[C@H](Cc3ccccc3)NC(=O)[C@H](C)NC1=O)CCCC=CC[C@]1(CCCN1C(C)=O)C(=O)N[C@@H](CC(=O)O)C(=O)N[C@@H](CC(C)(C)C)C(=O)N2 (stereo partly drawn)	beta-catenin/TCF4 engagement (Homo sapiens, UniProt P35222)	T
CC(=O)N1CCC[C@]12CC=CCCCC1(CCCC=CCCCOC(=O)N3CC[C@@](C(=O)N[C@@H](Cc4ccccc4Cl)C(=O)N[C@@H](Cc4csc5ccccc45)C(=O)N[C@@H](CCC(N)=O)C(N)=O)(C3)NC(=O)[C@H]([C@@H](C)O)NC(=O)[C@H](Cc3ccccc3)NC(=O)CNC(=O)C(C)(C)NC(=O)[C@H](CN(CC(=O)O)CC(F)(F)F)NC(=O)[C@H](CC(=O)O)NC1=O)NC(=O)[C@H](CC(C)(C)C)NC(=O)[C@H](CC(=O)O)NC2=O (stereo partly drawn)	beta-catenin/TCF4 engagement (Homo sapiens, UniProt P35222)	F

We next turn to a different molecule, shown below.
Assess whether reported pIC50 for CC(=O)N1CCC[C@]12CC=CCCCC1(CCCC=CCCCCCC[C@@](C)(C(=O)N[C@@H](Cc3ccccc3)C(=O)N[C@@H](Cc3csc4ccccc34)C(=O)N[C@@H](CCC(N)=O)C(N)=O)NC(=O)[C@H](CCO)NC(=O)[C@H](Cc3ccccc3)NC(=O)[C@H](C)NC(=O)[C@H](C)NC(=O)[C@H](CCC(=O)O)NC(=O)[C@H](CC(=O)O)NC1=O)NC(=O)[C@H](CC(N)=O)NC(=O)[C@H](CC(=O)O)NC2=O (stereo partly drawn) [I-1535] sits at 5 or higher.
F
